Tested on: BT-549 breast
Test: NCI-60 one-dose screen, 48 h
Conditions: 10 µM unless noted
Procedure: Growth inhibition of the BT-549 human tumor cell line is measured as a screen for anti-cancer activity. Cells are grown in 96 well plates and exposed to the test compound for 48 hours. Compounds are tested at a single concentration, which is 10^-5 M for most compounds. The reported endpoint is percent growth (GI% or GIPRCNT), where numbers from 0 - 100% represent growth inhibition, and numbers from -100% - 0 represent cell death. For example, a value of 40 represents 60% growth inhibition. […]
About 83,000 compounds went through this panel and 20% of them were active in at least one assay; those are over-represented in the sample as a whole. Active and inactive are the calls of the source. Rule for the calls: active = growth percent below 10; inactive = the rest.
Assign a class; possible classes are active, inactive

Known results for compounds:
Input: Identify the outcome logged in this assay for the compound shown: `CCSc1nc(Nc2ccc(S(=O)(=O)Nc3ccon3)cc2)c(C#N)c(-c2cccc(Br)c2)n1`
Output: inactive

Input: What did the test return for `N#Cc1ncc(-c2ccc(C(F)(F)F)cc2)c(NC2CCCCCC2)n1` ?
Output: inactive

Input: Which result was noted for this compound in the test: CO[C@H]1/C=C/O[C@@]2(C)Oc3c(C)c(O)c4c(O)c(c(/C=N/N5C(C)CN(Cc6ccc(C#N)cc6)CC5C)c(O)c4c3C2=O)NC(=O)/C(C)=C\C=C\[C@H](C)[C@H](O)[C@@H](C)[C@@H](O)[C@@H](C)[C@H](OC(C)=O)[C@@H]1C (stereo partly specified)
Output: active

Input: Tell me the recorded outcome of this test for `COc1ccc2c(c1)CC[C@@H]1[C@@H]2CC[C@]2(C)[C@@H](O)C(=O)C[C@@H]12` .
Output: inactive

Input: Recorded test call requested for `COc1cnc2c(c1)C(=O)c1c-2n(CCCn2ccnc2)c(=O)c2cc(F)ccc12`
Output: active

More entries:
Input: # fetch the recorded call for `COc1ccc(N2CCN(CC(=O)N3CCN(c4nnc(-c5ccc(Cl)cc5)c(-c5ccc(Cl)cc5)n4)CC3)CC2)cc1` here
Output: inactive

Input: // outcome(item) with item = `COc1cc(C(=O)/C=C/c2cccc(Nc3ccnc4cc(Cl)ccc34)c2)cc(OC)c1OC`
Output: active

Input: Hey, what did the test say about `O=C(/C=C/c1ccc([N+](=O)[O-])cc1)c1ccc2c3c(cccc13)CC2` ?
Output: inactive

Input: For this compound, state the assay outcome: `CCOC(=O)CCN(c1c(Cl)ssc1=O)C(C)C`
Output: inactive

Input: What call does the record list for `O=Cc1ncc(-c2ccc(C(F)(F)F)cc2)c(NC2CCCCCC2)n1` ?
Output: active

Input: Recorded test outcome, item `O=C(O)C1CCN(S(=O)(=O)c2ccc(-c3ccccc3)cc2)CC1`
Output: inactive

Input: Test call, this compound: `COc1cccc(-c2nc(-c3ccc(N)cc3)co2)c1`
Output: inactive

Input: Which outcome was entered for the compound `Cc1ccc(-c2c3c(N)nc(-c4ccncc4)nc3nc3c2c(C)nn3-c2ccccc2)cc1` in this test?
Output: inactive

Input: Hey, what did the test say about `CCCCCCCCN(CCO)CCCCCCCC` ?
Output: inactive

Input: Assay result, entry `Cc1nn(-c2nc3ccccc3s2)c(C)c1Oc1ccccc1O` — outcome?
Output: inactive

Input: What is the recorded call for this compound in the test? COc1ccc(C2=NN(C(N)=S)C(c3ccc4c(c3)OCO4)C2)cc1 (stereo unspecified)
Output: active

Input: Per the assay record, what outcome was assigned to `O=C(COc1ccc(/C=C2\Oc3ccc4ccccc4c3C2=O)cc1)c1ccc(Cl)cc1` ?
Output: inactive

Input: I would be grateful if you could indicate the recorded call for `COc1ccc(OC)c(CCn2cncc2-c2c[nH]c3cc(Br)ccc23)c1` .
Output: inactive

Input: For `COC(=O)C1(NC(=O)CNC(=O)OCc2ccccc2)CCCC1` , what call appears in the results of this test?
Output: inactive

Input: Each compound tested received a call. Report the one for `O=C1/C=C/[C@@H](O)[C@@H]2C[C@@H](O)C[C@H]2/C=C/CCC[C@H](CO)O1` .
Output: inactive

Input: What classification did O=CN1N=C(c2ccc(Nc3ccnc4cc(Cl)ccc34)cc2)CC1c1ccc(Cl)cc1 (stereo unspecified) end up with in this test?
Output: inactive

Input: Assay result, entry `COc1ccc(C(=O)/C=C/c2ccc(C)cc2)cc1OC` — outcome?
Output: inactive

====

System: RPMI-8226 leukemia
Assay: NCI-60 one-dose screen, 48 h (100 = growth as untreated, 0 = no growth, -100 = all killed)
Settings: 10 µM unless noted
Compounds without any hit were thinned out: in the full panel of roughly 83,000, 20% have a hit.
assay metric: growth (%)
Write the value in % as a bare number.

Input: growth for `CNNc1ncnc2c1cnn2-c1ccc(S(N)(=O)=O)cc1` ?
Output: 94

Input: Sample CC(C)=CCNc1ncnc2c1ncn2C1OC(COP(=O)(O)O)C(O)C1O (stereo unspecified) — what was its growth?
Output: 109

Input: // growth lookup, key: `O=C(NC1CCCCC1)c1ccc(Nc2ncnc3c2cnn3-c2ccccc2)cc1`
Output: 89.5

Input: So what does the record say about growth for `COC(=O)c1cc2oc(/C=N\NC(=O)c3cc4oc(C)c(C)c4[nH]3)cc2[nH]1` ?
Output: 35.1

Input: Could you tell me which growth is on file for `N#Cc1c(-c2ccccc2)cc(-c2ccccc2)n(CCCCCCC(=O)O)c1=O` ?
Output: 108

API: the following record is the query input.
Input: Item under review: `Clc1ccc2[nH]cc(-c3cncn3CCc3ccccc3)c2c1` . Reported growth?
Output: 22.6

====

The following compounds are shown together with reported growth values.
System: MDA-MB-231 breast
Assay: NCI-60 one-dose screen, 48 h (100 = growth as untreated, 0 = no growth, -100 = all killed)
Conditions: 10 µM unless noted
About 83,000 compounds went through this panel and 20% of them were active in at least one assay; those are over-represented in the sample as a whole.
All answers are understood in %, so give the number only.

Input: Which growth value belongs to `O=C(Nc1ccccc1)P(=O)(O)c1ccccc1` ?
Output: 100

====

Test system: SK-MEL-28 melanoma
Experiment: NCI-60 one-dose screen, 48 h (100 = growth as untreated, 0 = no growth, -100 = all killed)
Settings: 10 µM unless noted
The panel holds about 83,000 compounds, 20% with a hit somewhere; the sample as a whole holds those more often.
Measured growth, listed per entry for reference.
Please reply with the bare figure in % and do not write the unit itself.

Some solved entries appear below for comparison.
Input: Which growth is listed for `OCCN1CCN(CCCN2c3ccccc3Sc3ccc(C(F)(F)F)cc32)CC1` ?
Output: -86.6

Input: Query (compound): `O=C1C(=O)/C(=C/c2ccccc2)CCCCCC/C1=C/c1ccccc1` ; field requested: growth
Output: 94.9

Input: I'd like to know its growth. The compound in question is CC(=O)N1N=C(c2ccc(Nc3nc(NCCO)nc(NCCO)n3)cc2)CC1c1ccc(Cl)cc1 (stereo not drawn)
Output: 104

---
Input: If you can, please state the reported growth value of `CCNCCCn1c2c(c3ccc(F)cc3c1=O)C(=O)c1cc(OC)cnc1-2` .
Output: 8.91

Input: Which growth reading was recorded for the compound CC1CN(CC(O)c2ccc(Br)cc2)CCO1 (stereo not drawn) ?
Output: 119

Input: Consider the compound shown here: `CN(C)CCCN=c1cc2c(=O)n(CCCN(C)C)c(=O)c3c(NCCCN(C)C)cc4c(O)n(CCCN(C)C)c(=O)c1c4c3-2` What is its recorded growth?
Output: -48.6

Input: Can you look up the measured growth of C/C(=C\CCc1ccoc1)CC/C=C(\C)CCCC1COC(=O)C1 (stereo not drawn) for me?
Output: 96.9

Input: Would you mind telling me what growth value was observed for COc1ccc(C2CC(c3ccc4c(c3)OCO4)=NN2C=O)cc1 (stereo not drawn) ?
Output: 107

Input: Given the entry `O=C(COc1cccc(/C=C2\Oc3ccc4ccccc4c3C2=O)c1)c1ccc(Cl)cc1` , report its measured growth.
Output: 113

Input: Quick one: growth of `NC(=N\N=C/Cc1ccccc1)/C(N)=N\N=C\Cc1ccccc1` ?
Output: 120

Input: Name the recorded growth for `COC(=O)CC1=C(c2ccc([N+](=O)[O-])cc2)CCC1=O` .
Output: 109

Input: # lookup: growth of `COc1ccccc1NC(=O)c1sc2nc3c(cc2c1N)C(=O)CCC3`
Output: 59.1

Input: Sample `CCSc1nc(-c2cccs2)n2nc(-c3ccco3)cc2n1` — what was its growth?
Output: 113

====

Test system: K-562 leukemia
Assay: NCI-60 one-dose screen, 48 h (100 = growth as untreated, 0 = no growth, -100 = all killed)
Details: 10 µM unless noted
Experimental: Cells are grown in 96 well plates and exposed to the test compound for 48 hours. Compounds are tested at a single concentration, which is 10^-5 M for most compounds. The reported endpoint is percent growth (GI% or GIPRCNT), where numbers from 0 - 100% represent growth inhibition, and numbers from -100% - 0 represent cell death. For example, a value of 40 represents 60% growth inhibition. A value of 0 means no net growth occurred over the course of the experiment. […]
This is part of a sample that, as a whole, favours compounds with a hit. Of some 83,000 tested, about 20% had one in any assay.
Each entry below lists one item and its recorded growth value.
Answer with a number only, understood to be in %.

Worked examples follow.
Input: Item: `Cc1csc(C#Cc2cncc(O)c2)n1` Test system: K-562 leukemia Read-out: growth Value: ?
Output: 127

Input: Checklist item: growth tested on K-562 leukemia, entry `COc1ccc2c(c1)CC[C@@H]1[C@@H]2CC[C@]2(C)[C@@H](O)C(=O)C[C@@H]12` , value?
Output: 94.2

Input: Report growth for `COc1ccc(CNC(=O)c2c(C)n([O-])c3cc(F)c(F)cc3[n+]2=O)cc1` tested on K-562 leukemia.
Output: 46.5

Input: Could you share what growth was measured for O=C1OC(Oc2ccccc2)(c2ccccc2)c2ccccc21 (stereo unspecified) , tested on K-562 leukemia?
Output: 55.3

Input: Query the reported growth for K-562 leukemia; item: `CCc1ccc(-c2nc(SCC(=O)NC3CCCCC3)n[nH]2)cc1`
Output: 33.3

Others:
Input: What growth appears in the records for this compound with K-562 leukemia? `N#Cc1c(-c2ccccc2)cc(-c2ccccc2)n(CCCCCCC(=O)O)c1=O`
Output: 94.3
